Where do these numbers come from? They come from ChEMBL document CHEMBL1201862.

# Test system: TK-10
# experiment: NCI tumour cell line growth inhibition, 48 h
Active and inactive are the calls of the source. No stated cut-off is given here; in the data, active = GI50 up to about 1.1 µM and inactive = higher.
GI50 by entry:

See these solved cases before continuing.
molecule: Cc1cc(Cl)ccc1NC(=O)C(=O)Cc1nc2ccc(C(=O)c3ccccc3)cc2nc1O
GI50: > 100 µM (inactive)
//
molecule: Cc1c(-c2ccccc2)[nH]c2cn[nH]c(=O)c12
GI50: > 100 µM (inactive)
//
molecule: CC1=C(\C=C/C(C)=C/C=C/C(C)=C/C=C/C=C(C)\C=C\C=C(C)/C=C/C2=C(C)CCCC2(C)C)C(C)(C)CCC1
GI50: > 100 µM (inactive)
//
molecule: COc1ccc(/C=C/C(=N\NC(=O)c2ccccc2)c2sc(Nc3ccc([N+](=O)[O-])cc3)nc2C)cc1OC
GI50: 29.3 µM (inactive)
//
molecule: CCN(CC)CC(=O)NC1c2ccccc2Oc2ccccc21
GI50: > 100 µM (inactive)

Query C=C(NC(=O)C(=C)NC(=O)c1csc(C2=NC3c4csc(n4)C4NC(=O)c5csc(n5)C(C(C)(O)C(C)O)NC(=O)C5CSC(=N5)/C(=C/C)NC(=O)C(C(C)O)NC(=O)c5csc(n5)C3(CC2)NC(=O)C(C)NC(=O)C(=C)NC(=O)C(=C)NC(=O)C(C(C)C)NC2C=Cc3c(C(C)O)cc(nc3C2O)C(=O)OC4C)n1)C(N)=O (stereo not drawn) yields GI50 of 4.18 µM (inactive)

Query COc1ccc(N2C(=O)C3c4[nH]c5ccccc5c4C4CCC(C(C)(C)C)CC4C3C2=O)c(C)c1 (stereo not drawn) yields GI50 of > 100 µM (inactive)

Query Cc1cc(N(CCC#N)CCC#N)ccc1/N=N/c1cccc(C(=O)O)c1 yields GI50 of > 100 µM (inactive)

====

# System: HCT-116
# experiment: NCI tumour cell line growth inhibition, 48 h
Activity calls are given as the source filed them. Cut-off read from the data, not from the text of the source: active = GI50 up to about 1.1 µM and inactive = higher.
property: GI50

molecule: CN(C)CCC(/C=C/c1ccccc1)=N\Nc1c(F)c(F)c(F)c(F)c1F
GI50: > 100 µM (inactive)

Query O=C(Nc1ccccc1)N(C1=NCC(CI)S1)c1ccc(F)c(F)c1 (centres undefined) yields GI50 of 29.1 µM (inactive)

Query O=[N+]([O-])c1cccc(/C=N\NS(=O)(=O)c2ccc(Cl)cc2)c1O yields GI50 of 50.4 µM (inactive)

Query N#Cc1nc(C(CO)N(Cc2ccccc2)C(=O)O)oc1N (centres undefined) yields GI50 of > 100 µM (inactive)

====

# Test system: COLO 205
# experiment: NCI tumour cell line growth inhibition, 48 h
Activity calls are given as the source filed them. No stated cut-off is given here; in the data, active = GI50 up to about 1.1 µM and inactive = higher.
Reply using exactly one outcome from active, inactive

Take a look at these entries with their results.
molecule: CC(C)(C)OC(=O)NC1CCCC1C(O)(C1=CCCC1)C1=CCCC1 (stereo unspecified)
class.label: inactive

molecule: O=c1ccc2cc(O)c(O)cc2o1
class.label: inactive

molecule: CCCCCCCCCCCCCCCCCCNc1ccn(C2OC(COP(=O)(O)OCC3OC(n4cc(C)c(=O)[nH]c4=O)CC3O)C(O)C2O)c(=O)n1 (stereo unspecified)
class.label: inactive

molecule: Cc1cccc(NC(=O)/C=C/c2ccccc2)c1C
class.label: inactive

Ask | Tell me the recorded outcome of this test for C/C=C1\CC2C(=O)CCC2C2c3ccccc3OC12 (stereo unspecified) .
Reply | inactive

Ask | Tell me the recorded outcome of this test for CN(C)CCNC(=O)c1cccc(N(C)C(=O)c2ccccc2)c1[N+](=O)[O-] .
Reply | inactive

Ask | Tell me the recorded outcome of this test for C/C(=N\N(C)C)c1sc(-n2nc(-c3ccccc3)cc2-c2ccccc2)nc1C .
Reply | inactive
